B1: IKZF1 (parent)
chain: RDPFECNMCGYHSQDRYEFSSHIT

variants of: B1; assay: protein stability index of a GFP-peptide fusion (GPS, HEK-293T) (PSI 1-6); higher = more stable; conditions: c terminus: a fixed tail appended;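 also: lentivirally expressed fusions sorted by FACS into six bins by GFP to DsRed ratio, PSI derived from sequencing read proportions per bin multiplied by bin number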
Measured parameter: protein stability index
Keep it simple and answer with nothing but the number.

## Input Given the entry H12L , report its measured protein stability index.
## Output 2.69

## Input R1L , same question.
## Output 2.31

## Input F19E , same question.
## Output 3.35

## Input E5H , same question.
## Output 1.9

## Input S21I , same question.
## Output 2.28

## Input Y17P , same question.
## Output 2.81

## Input S13Y , same question.
## Output 1.92

## Input T24K , same question.
## Output 2.52

## Input R16M , same question.
## Output 2.78

## Input H22I , same question.
## Output 1.83

## Input S21R , same question.
## Output 1.84

## Input N7T , same question.
## Output 2.18

## Input C6R , same question.
## Output 2.06

## Input I23C , same question.
## Output 2.59

## Input Y17C , same question.
## Output 2.38

## Input F19R , same question.
## Output 2.38

## Input D15G , same question.
## Output 1.98

## Input F19G , same question.
## Output 3.13

## Input H12A , same question.
## Output 2.6

## Input S13K , same question.
## Output 2.1

## Input I23Q , same question.
## Output 2.21

## Input T24M , same question.
## Output 1.57

## Input E5M , same question.
## Output 1.88

## Input Q14D , same question.
## Output 2.09

## Input D15F , same question.
## Output 1.76

## Input G10I , same question.
## Output 1.92

## Input T24A , same question.
## Output 2.42

## Input T24P , same question.
## Output 2.32

## Input P3V , same question.
## Output 1.76
